Each entry below lists one item and its recorded Population Fragmented Nuclei (%) value.
system: HEK-293T; test: Multiplex assay against HEK293T; assay type: toxicity, cell-based; conditions: human, 24 h, 1 µM, compound concentration 1 uM, replicate 2
Your answer should be a plain number; it is taken to be in %.

Cc1ccc(C(C)(O)c2nc3ccccc3s2)c(C)c1 (configuration not stated) = 6
O=C1COc2nccc(-c3ccccc3F)c2CN1Cc1cc(C(F)(F)F)cc(C(F)(F)F)c1 = 5
Cl.Clc1ccc2nsnc2c1NC1=NCCN1 [TIZANIDINE HYDROCHLORIDE] = 10
COc1c(C)cc(NC(=O)c2nn(Cc3ccc(F)cc3)c3c2CN(C(=O)c2ccc[nH]2)C[C@]3(C)C(N)=O)cc1C = 5
O=S(=O)(c1ccccc1)c1cnc2c(N3CCNCC3)cccc2c1 [INTEPIRDINE] = 7

The compound listed as "CN(C)c1ccnc2sc3c(=O)n(N4CCCCCC4)cnc3c12" has a reported Population Fragmented Nuclei (%) of 7

The compound listed as COc1ccc2c(c1)C(C(=O)N(Cc1ccc(N(C)C)cc1)c1ccc(C(C)C)cc1)CCC2.Cl (configuration not stated) has a reported Population Fragmented Nuclei (%) of 7

The compound listed as "Oc1c(CN2CCN(c3ccccn3)CC2)cc(Cl)c2cccnc12" has a reported Population Fragmented Nuclei (%) of 7

The compound listed as "COc1cc(NC(=O)CCN2CCC(OC(=O)Nc3ccccc3-c3ccccc3)CC2)c(Cl)cc1CNC[C@H](O)c1ccc(O)c2[nH]c(=O)ccc12" has a reported Population Fragmented Nuclei (%) of 7

The compound listed as "O=C(NCC(=O)N1CC[C@H](N[C@H]2CC[C@@](O)(c3ccc(-c4ncccn4)cn3)CC2)C1)c1cccc(C(F)(F)F)c1" has a reported Population Fragmented Nuclei (%) of 8

The compound listed as "Cc1ccc(/C(=C\CN2CCCC2)c2ccccn2)cc1" has a reported Population Fragmented Nuclei (%) of 9

The compound listed as "C[C@H]1[C@H]2CC[C@H]3[C@@H]4CC=C5C[C@@H](N(C)C)CC[C@]5(C)[C@H]4CC[C@]23CN1C" has a reported Population Fragmented Nuclei (%) of 8

The compound listed as "CCOc1c2c(c(OCC)c3ncccc13)CN(c1ccc(CS(=O)(=O)NC(=O)Cc3ccccc3OC)cc1C)C2=O" has a reported Population Fragmented Nuclei (%) of 5

The compound listed as "CCCn1c(=O)c2[nH]c(C3CCCC3)nc2n(CCC)c1=O" has a reported Population Fragmented Nuclei (%) of 7

The compound listed as "Cc1ccc(F)cc1C(=O)Nc1ccc(C(=O)N2Cc3cccn3Cc3ccccc32)c(Cl)c1" has a reported Population Fragmented Nuclei (%) of 10

The compound listed as "C[C@H](NC(=O)c1c(C(F)F)nn(C)c1Oc1cccc(C(F)(F)F)c1)c1ccc(C(=O)O)cc1" has a reported Population Fragmented Nuclei (%) of 7

The compound listed as "CC1(COc2ccc3c(c2)ncn3-c2ccc3cccc(N4CCC(N)CC4)c3n2)COC1" has a reported Population Fragmented Nuclei (%) of 15
